assay: Stability in human liver microsomes assessed as compound remaining after 1 hr; type: ADME, Microsome; details: liver microsomes, read-out: Stability
Measurement kind: remaining at 1 h (%)
Write down the numeric answer in % and omit the unit.

Here are 3 compounds together with their reported answers.
>  <Compound>
Cn1c2c(c3cc(S(=O)(=O)n4ccc5ccccc54)ccc31)C1CCC(C2)N1 (single isomer, unassigned; (-))

>  <Units>
%

>  <remaining at 1 h>
82

$$$$
>  <Compound>
Cn1c2c(c3cc(S(=O)(=O)c4ccc5[nH]ccc5c4)ccc31)C1CCC(C2)N1 (single isomer, unassigned; (-))

>  <Units>
%

>  <remaining at 1 h>
89

$$$$
>  <Compound>
Cn1c2c(c3cc(S(=O)(=O)c4c[nH]c5ccccc45)ccc31)C1CCC(C2)N1 (single isomer, unassigned; (-))

>  <Units>
%

>  <remaining at 1 h>
72

$$$$

# context switch: different compound, same remaining at 1 h
Sample Cn1c2c(c3cc(S(=O)(=O)c4cccc(Cl)c4)ccc31)C1CCC(C2)N1 (single isomer, unassigned; (-)) — what was its remaining at 1 h?
76
